ASSAY_DETAILS: label from the status in PepcDB records
REPORTED_PROPERTY: protein production

Examples from the recorded data:
Prompt: I have this sequence here, MGVLQRFERRLEGMIEGTFARAFKSELQPVEVASNVQREMDERAAIVAQGRTLVPNDFVVELSASDRERLAVYADNLGQELSKLAREYATEQGYSFVGPVRVRFETADDLQTGRFRVRSAVIRGDTVKDGEIIKPVTDHPRRGSVIPGRPRLLLSPGGAAADGSLTAQGAQQAYELTSEVTLLGRGTDCDLRLVDNGVSRHHAEIRLEGNEAILVDLNSTNGTFVNGQQVQRARLVDGSRISLGRTTMTFRRD , and I need its recorded protein production.
Completion: failed

Prompt: I have this sequence here, MLWHVFYGRGRMLLSNHAQGRNFRPIFVMSDPISWTAEATERLKEIPFFVRPAARKKIENFAREAGITEITETVYEQAKQKFN , and I need its recorded protein production.
Completion: failed

Prompt: I have this sequence here, MAEVTGVRALTGAALDAALEDVARLRIAVFRAWPYLYDGDLDYERDYLQAYRNSDRAIVVGAFDGDRLIGASTGMPLADHADDFAAAFADSGLALDQVFYCAESVLLPDYRGHGVGHRFFDLREGHARALGFAKCAFCGVQRPADHPLKPDSYRPLDAFWRARGYEKLPGAVAHFSWKDLDQENETDKPLQFWIRDL , and I need its recorded protein production.
Completion: failed

Prompt: I have this sequence here, MGSSHHHHHHSSGRENLYFQGVKSEDQLVHICSREEWRTAEREGSRVPATFRADGFVHLSTPAQVHLPANRLFAGRTDLVLLRLDPTALGAPVKWEPGVPADPASMLFPHLYGPLPVAAVTGVEEYRPDADGTFPARR , and I need its recorded protein production.
Completion: not failed

Prompt: I have this sequence here, MKLGYSLSKSNAKNFKFYINGSAMGYKNIIINGAKSWNASPYLNTVSKGRDANPHFIISSSTIDRGATVAVCETWAYKGSKLVAKNEITTFKAFRSLSVGDKTETIAHEFGHGLGLGHVKTKNAIMLDVGFTKKIKPQRDDLNGIKAIYKLEHHHHHH , and I need its recorded protein production.
Completion: failed

Continuing:
Prompt: I have this sequence here, HSFVVLVIGESARKHNYALYGYQKPTTPRLSKRLADNELTLFNATSCATYTTASLECILDSSFKNNAYENLPTYLTKAGIKVFWYSANDGEKNVKVTSYLKNYELIQKCPNCEAIAPYDESLLYNLPDLLKEHSNENVLLILHLAGSHGPNYDNKVPLNFRVFKPYCSSADLSSCSKESLINAYDNTIFYNDYLLDKIISMLENAKQPALMIYLSDHGESLGEEAFYLHGIPKSIAPKEQYEIPFIVYAN , and I need its recorded protein production.
Completion: failed

Prompt: I have this sequence here, AVNEENIMIPKGVEVYEITGPYFFGIATKFEETMAQLGDRPNVRIIRMRKVPFIDSTGIHNLTTLCEMSQKEKITVILSGVNEKVYKVLEKSGFYELLGKENICPNFKIALDRAEEV , and I need its recorded protein production.
Completion: failed

Prompt: I have this sequence here, MFFKEIHHVAINASNYQATKNFYVEKLGFEVLRENHRPEKNDIKLDLKLGSQELEIFISDQFPARPSYPEALGLRHLAFKVEHIEEVIAFLNEQGIETEPLRVDDFTGKKMTFFFDPDGLPLELHE , and I need its recorded protein production.
Completion: not failed

Prompt: I have this sequence here, AAIILHEIYGINAHIQRAGHEWMTRGFDIYIPALFPHHTPFRYEQQEEAYRHFSANVGFDPAVVTTLLHELRTQYETLIVVGYSVGATLAWLSAASGLCDGVICYYGSRIRQYLHLAPLCPTLVIIARYEPAFDPLAMRQTLEKRPRVQCKMYDARHGFCDADSATFDAALSHQVMDDVSAFIRDI , and I need its recorded protein production.
Completion: failed

Prompt: I have this sequence here, MEGKGSFSENLVKRLQLVKANRSHLAPLIDLLRSKVSKSVKRNKHFFRDYADQIYIVSSGFKEFILPIVTEFGIKEEHVMANTFTFDNDGNIIGCDANNPLSQDKGKIKLMEKLGLTGDVHVIGDGYTDYEIRGAGLASKFYAFTENVSRAAVTAKADSIAPSFDEILFQEKL , and I need its recorded protein production.
Completion: failed

Prompt: I have this sequence here, MGYDPRISVSKWYEKWMLIYVVHSVKATTLSNYVNGFERVREYIGYMRLIEVRPTHILDMIKGLEEEGYARTTVIQSLSVVRQLFKKAYGGKMIPIDPVADIKLEHHHHHH , and I need its recorded protein production.
Completion: not failed

Prompt: I have this sequence here, MNHTLQFPKAPEHLLQALNEVIPKCKLMAQQLPETAISLWLIPPVFPTERLDDDIIRRIWSDTPYWIFCWASGLAMAQWLLAEPHHVKDKVVLDFGAGSGVVAIAAKMAGAKRVICCDIDETSLNACRENALLNNVELEYLNDLYLSESVDILLAADVLYDQSNRFFLDEFLKFAPEVWVADSRVKNFSHPGYIKIDERSATTWPDLDEAKEFRNVSFYKTLEHHHHHH , and I need its recorded protein production.
Completion: failed

====

ASSAY_DETAILS: label from the status in PepcDB records
REPORTED_PROPERTY: protein production

Prompt: I have this sequence here, MSLSFMIGYSWTQTEPGQVNHILDQFLSSMVREAGAVNYFVLPFPFSEDRSQIDIYRDLIRSGNVDGFVLSSINYNDPRVQFLLKQKFPFVAFGRSNPDWDFAWVDIDGTAGTRQAVEYLIGRGHRRIAILAWPEDSRVGNDRLQGYLEAMQTAQLPIETGYILRGEGTFEVGRAMTLHLLDLSPERRPTAIMTLNDTMAIGAMAAARERGLTIGTDLAIIGFDDAPMVQYLFPPLSSVRQPIAEAGRKCIELLVAIVEGREPEQKHILLQPSLIIRASEGLITITTDPNSSSVDKLAAALEHHHHHH , and I need its recorded protein production.
Completion: not failed

Prompt: I have this sequence here, MSDEHRFSRLRPLSLGLLAPLAVLLTGCGGPNLIERLSIGNWGFWGTVIIVLDLVALVDLLGDGTRSTTSTVVWALLIVFAPVLGVILYFIFGRE , and I need its recorded protein production.
Completion: failed

Prompt: I have this sequence here, MRLYERSSCLLQPPDYSLMNDSTDAQDVSQARVWLWAARPKTLGAAVAPVLVGTGMALEAGAWHLLSALLALAGAVLIQVGVNYHNDYADYVQGADTQERVGPLRVTQAGLVAPQTMRRATILVFGLAVMAGLYLIARGGWPILAVGVASIGAAIWYTAGRYSLAALGLADVFVFVFFGPVAVGGTYYVQALSLPTEVLLAGGGPGLLSIGILLVNNVRDVAEDRRAGKRTLVVRFGRRFGVAAYGACLVGALLLAGLLAAGLFGTTPHPWAALPLGLLPLAIGPIRRLSETTDPEKLNPLLGATGRILVLWALLFAVGWNL , and I need its recorded protein production.
Completion: failed

Prompt: I have this sequence here, NNDDDGTNKAQEIAGKYEGYSIGNCAMFTDYVMGEKSVATIVPNEDGTINVTYDSGSGEFKLNNIKVTSKTFEGSGQVELSMNDKPAGAKDFTLTGSIDEQQKLTLKVNVPSVMGGLTIEFIQGTLPISYHVSGTYNKEANLSVSVGSTTYPDITDCKVSIKRSSDDTVELTLKGLSNLNSSQTGRAMNLGDFTVTDVKVTSTDNSIFKIEGSINTTDTNNTPITGTLSGTVSNSETNITFTFKPGAMPIDITAMFKGKK , and I need its recorded protein production.
Completion: not failed

Prompt: I have this sequence here, MSLSEPAWSLHSRLKEDTIDIGDLPLSKVLVIKDANYPWLLLVPRRPDAVEIIDLDEVQQAQLMTEISRVSRALKEITKCDKLNIAALGNLVPQLHVHIIARRTGDAAWPRPVWGVMQPLAHDATEVQNFISALRRKIWLGEGHHHHHH , and I need its recorded protein production.
Completion: not failed

Prompt: I have this sequence here, MYTYKLQDEKPICSEKLKRLYDSVGWWPERKEIDIQKMLKNSIAIGVWKENELIGFARVVSDGVFRAYLEDVVVHESVRNKGIGEKMLTMLLEEISHINIVSLFCGEKLIKFYGQQQFQVTK , and I need its recorded protein production.
Completion: failed

API: the following record is the query input.
Prompt: I have this sequence here, MGNNFAQLKRLINFFRTVILPARISQLILQTFLKWQKDNCMDMGAALAYYALFSLFPICLVMLSIAGRLLGADSNYYLQLISFAQNILPEQPFKVFQQALTNLNQSSFSAGLIGFGILVLTASRIFDALNQSVKKIWSVVHQPKENIGVKHHAFNFIRNKILAFLLVLSTVMVFLLSIFANLAAKIFLTVLAEFGQSIPWVTFDSLGLITTLQTSISYFLITVVIITLFKVLPPVRLQWWDIFPGAILTAATMMALQNAVGSGIIRIGENLQAYGVVGNVMVLLLWIYLIFQVFFIGCEFTFVFTYIFGSRHQKEKPF , and I need its recorded protein production.
Completion: failed

Values from a protein production outcome set (Wang et al. 2014)
